# measuredOn: human H3 receptor (Homo sapiens, UniProt Q9Y5N1)
# Sequence (Q9Y5N1 whole entry): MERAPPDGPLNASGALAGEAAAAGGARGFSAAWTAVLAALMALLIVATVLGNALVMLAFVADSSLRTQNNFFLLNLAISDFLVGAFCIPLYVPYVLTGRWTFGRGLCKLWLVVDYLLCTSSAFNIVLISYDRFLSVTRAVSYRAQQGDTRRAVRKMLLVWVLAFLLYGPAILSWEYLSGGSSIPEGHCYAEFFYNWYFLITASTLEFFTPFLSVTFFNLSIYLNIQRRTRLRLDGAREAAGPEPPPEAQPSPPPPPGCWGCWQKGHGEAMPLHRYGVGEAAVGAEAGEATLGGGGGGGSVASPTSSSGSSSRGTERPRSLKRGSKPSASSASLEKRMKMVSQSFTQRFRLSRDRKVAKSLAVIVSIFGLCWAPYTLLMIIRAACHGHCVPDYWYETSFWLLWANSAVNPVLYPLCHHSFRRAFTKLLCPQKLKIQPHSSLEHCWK
pKi: −log10 of the molar value.
propertyLabel: pKi

- compound: "CC(C)N1CCN(CCC#Cc2ccc(OC(CCN(C)C)c3ccc(C(F)(F)F)cc3)cc2)CC1 (stereo not drawn)"
  testResult: 6.84
- compound: "CN(C)CCC(Oc1ccc(C#CCCN2CCSCC2)cc1)c1ccc(Cl)cc1 (stereo not drawn)"
  testResult: 7.54
- compound: "CN(C)CCC(Oc1ccccc1)c1ccc(C#CCCN2CCCCC2)cc1 (stereo not drawn)"
  testResult: 8.92
- compound: "CN(C)CCC(Oc1ccc(C#CCCN2CCOCC2)cc1)c1ccc(Cl)cc1 (stereo not drawn)"
  testResult: 7.25
- compound: "CN(C)CCC(Oc1ccccc1)c1ccc(OCCCN2CCCCC2)cc1 (stereo not drawn)"
  testResult: 9.15
- compound: "CN(C)CCC(Oc1ccc(C(F)(F)F)cc1)c1ccc(CCCCN2CCCCC2)cc1 (stereo not drawn)"
  testResult: 7.64
- compound: "CNCCC(Oc1ccc(C(F)(F)F)cc1)c1ccc(OCCCN2CCCCC2)cc1 (stereo not drawn)"
  testResult: 9.00
- compound: "CN(C)CCC(Oc1ccc(Cl)c(Cl)c1)c1ccc(C#CCCN2CCCCC2)cc1 (stereo not drawn)"
  testResult: 7.62
- compound: "CN(C)CCC(Oc1ccc(Br)cc1)c1ccc(OCCCN2CCCCC2)cc1 (stereo not drawn)"
  testResult: 8.77
- compound: "CN(C)CCC(Oc1ccc(C#CCCN2CCSCC2)cc1)c1ccc(C(F)(F)F)cc1 (stereo not drawn)"
  testResult: 7.12
- compound: "CCCCN1CCN(C(=O)c2ccc(C(CCN(C)C)Oc3ccc(C(F)(F)F)cc3)cc2)CC1 (stereo not drawn)"
  testResult: 7.77
- compound: "CC(C)N1CCN(Cc2ccc(C(CCN(C)C)Oc3ccc(C(F)(F)F)cc3)cc2)CC1 (stereo not drawn)"
  testResult: 8.70
- compound: "CNCCC(Oc1ccccc1)c1ccc(OCCCN2CCCCC2)cc1 (stereo not drawn)"
  testResult: 9.05
- compound: "CC(C)N1CCN(CCC#Cc2ccc(C(CCN(C)C)Oc3ccccc3)cc2)CC1 (stereo not drawn)"
  testResult: 7.31
- compound: "CN(C)CCC(Oc1ccc(C(F)(F)F)cc1)c1ccc(OCCCN2CCCCC2)cc1 (stereo not drawn)"
  testResult: 8.60
- compound: "CC(C)N1CCN(C(=O)c2ccc(C(CCN(C)C)Oc3ccccc3)cc2)CC1 (stereo not drawn)"
  testResult: 9.15
- compound: "CN(C)CCC(Oc1ccc(Cl)cc1)c1ccc(OCCCN2CCCCC2)cc1 (stereo not drawn)"
  testResult: 8.77
- compound: "CN(C)CCC(Oc1ccc(C#CCCN2CCCCC2)cc1)c1ccc(C(F)(F)F)cc1 (stereo not drawn)"
  testResult: 7.62
